Target: human ether-à-go-go-related gene (hERG) potassium channel (human)
Assay: primary screen, population patch clamp on CHO cells stably expressing hERG; higher = less effect of the substance
Method: Briefly, Chinese hamster ovary (CHO) cells stably expressing the hERG channel were dislodged from tissue culture flasks and dispensed into PPC plates. […] During the recording, background leak currents were estimated by a 100 ms step to -80 mV from an initial holding potential of -70 mV and subtracted from the subsequent current measurement. The campaign was conducted in two phases using slight differences in recording protocol. […]
About 14,000 (4.5%) of roughly 310,000 compounds showed an effect of 50% or more. The effect is printed as a negative number. The full list was thinned out, with strong results kept by preference.
quantity.measured: hERG current change (%, negative = inhibition) at 10uM (%)
Your answer should be a plain number; it is taken to be in %.

C=CCN(c1ccccc1)S(=O)(=O)c1cccc(C(=O)NCC(c2cccs2)N2CCOCC2)c1 (centres unmarked)	-18.7
O=C(Cn1cnc(S(=O)(=O)N2CCCCC2)c1)NCc1ccco1	8.34
COc1ccc(NS(=O)(=O)c2cccc(C(=O)NCC(c3ccc(OC)cc3)N3CCCC3)c2)cc1 (centres unmarked)	-46.7
Nc1ccc(C#Cc2c(-c3ccsc3)oc3ccc(N4CCOCC4)cc23)cc1	5.98
OC(c1ccccc1)(c1ccccc1)C1CCN(C(=S)NCCc2ccccc2)CC1	16.3

Could you please provide reported hERG current change (%, negative = inhibition) at 10uM for Cc1ccccc1C(=O)c1cccn1CC(=O)NCCN1CCN(c2cccc(C)c2C)CC1 ? Thanks!
-69.5

Could you please provide reported hERG current change (%, negative = inhibition) at 10uM for CCOC(=O)c1c(-c2ccc(C)cc2)csc1NC(=O)CCN1CCOCC1 ? Thanks!
-42.1

Could you please provide reported hERG current change (%, negative = inhibition) at 10uM for Cc1ccc(CNC(=O)Cn2cccc2C(=O)c2ccccc2)cc1 ? Thanks!
1.89

====

biological target: human ether-à-go-go-related gene (hERG) potassium channel (human, UniProt Q12809); test: primary screen, population patch clamp on CHO cells stably expressing hERG; higher = less effect of the substance
Sequence (Q12809 whole entry, looked up): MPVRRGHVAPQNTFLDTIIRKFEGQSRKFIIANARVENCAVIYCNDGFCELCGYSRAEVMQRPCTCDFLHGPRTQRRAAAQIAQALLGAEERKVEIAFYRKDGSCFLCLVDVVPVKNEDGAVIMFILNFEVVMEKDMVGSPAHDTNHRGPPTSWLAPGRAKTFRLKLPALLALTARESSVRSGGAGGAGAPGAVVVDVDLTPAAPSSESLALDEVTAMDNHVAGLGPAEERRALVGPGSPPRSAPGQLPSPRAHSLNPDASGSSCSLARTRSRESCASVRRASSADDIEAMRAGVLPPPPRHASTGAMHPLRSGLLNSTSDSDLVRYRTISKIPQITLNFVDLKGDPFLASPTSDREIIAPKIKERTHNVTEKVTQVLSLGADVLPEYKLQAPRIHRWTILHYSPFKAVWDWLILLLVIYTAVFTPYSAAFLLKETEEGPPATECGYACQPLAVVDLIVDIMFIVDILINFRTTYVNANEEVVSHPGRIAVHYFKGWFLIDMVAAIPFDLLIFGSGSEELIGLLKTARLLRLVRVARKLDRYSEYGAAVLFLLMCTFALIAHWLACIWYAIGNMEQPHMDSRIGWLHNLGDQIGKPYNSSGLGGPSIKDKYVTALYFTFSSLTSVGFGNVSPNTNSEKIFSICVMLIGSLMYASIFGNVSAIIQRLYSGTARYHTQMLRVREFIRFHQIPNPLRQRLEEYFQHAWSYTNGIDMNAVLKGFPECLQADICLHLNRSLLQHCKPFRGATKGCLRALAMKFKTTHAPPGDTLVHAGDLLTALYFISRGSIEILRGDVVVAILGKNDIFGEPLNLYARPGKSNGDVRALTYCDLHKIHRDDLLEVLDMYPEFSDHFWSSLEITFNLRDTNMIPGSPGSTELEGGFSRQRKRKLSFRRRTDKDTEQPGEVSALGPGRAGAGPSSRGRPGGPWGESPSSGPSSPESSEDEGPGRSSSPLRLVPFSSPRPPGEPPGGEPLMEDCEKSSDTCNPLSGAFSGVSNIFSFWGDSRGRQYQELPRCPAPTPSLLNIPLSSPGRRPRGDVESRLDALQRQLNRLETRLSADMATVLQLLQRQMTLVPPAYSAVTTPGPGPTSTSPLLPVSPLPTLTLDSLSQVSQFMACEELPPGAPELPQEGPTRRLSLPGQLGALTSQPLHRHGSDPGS
Screen size: about 310,000 compounds; about 14,000 (4.5%) showed an effect of 50% or more. The effect is printed as a negative number. The sample holds strong results, similar compounds and a random draw of the others, so the mix is not that of the screen.
Reported hERG current change (%, negative = inhibition) at 10uM values for the following compounds.
Your answer should be a plain number; it is taken to be in %.

Worked examples, 9 compounds total:
CS(=O)(=O)N1CCc2cc(NC(=O)c3ccc(Cl)cc3Cl)ccc21	1.5
N#Cc1cccc(CN2CCC(=O)N([C@H](CO)c3ccccc3)CC2)c1	-4.9
O=S(=O)(Cc1cc(NCc2ccccc2)nc(-c2ccncc2)n1)c1ccccc1	20.3
O=C(N/N=C/c1cccc(F)c1)c1csc2c1CCCC2	-30
CCn1c(SC)nnc1-c1nn(-c2ccccc2)ccc1=O	11.3
COc1ccc(N(CC(=O)N2CCc3ccccc32)S(=O)(=O)c2c(C)n[nH]c2C)cc1	-18.6
N#C/C(=C/c1ccc(N2CCCCCC2)o1)c1ccc(Cl)cc1	-3.68
CCn1c(SCc2ccc(F)cc2)nnc1-c1nn(-c2ccccc2)ccc1=O	-35.1
C=C1CCC[C@]2(C)C[C@H]3OC(=O)C(CN4CCOCC4)[C@H]3C[C@@H]12 (stereo partly shown)	17.7

Now for the compound whose hERG current change (%, negative = inhibition) at 10uM we want.
Could you please provide reported hERG current change (%, negative = inhibition) at 10uM for O=C(NC1CCCC1)C(c1ccncc1)N(C(=O)c1csnn1)c1cccc(F)c1 (stereo not shown) ? Thanks!
17.2

====

target: human ether-à-go-go-related gene (hERG) potassium channel (human); assay: primary screen, population patch clamp on CHO cells stably expressing hERG; higher = less effect of the substance;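 also: peak tail current of the secondary pulse compared with the same well before compound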
The whole screen tested about 310,000 compounds, of which about 14,000 (4.5%) showed an effect of 50% or more. The effect is printed as a negative number. This is one part of a sample in which strong results are shown more often than they occur.
quantity.measured: hERG current change (%, negative = inhibition) at 10uM (%)
Your answer should be a plain number; it is taken to be in %.

Could you please provide reported hERG current change (%, negative = inhibition) at 10uM for O=C(CC1Nc2ccccc2NC1=O)c1ccccc1 (centres unmarked) ? Thanks!
-2.01

Could you please provide reported hERG current change (%, negative = inhibition) at 10uM for COc1ccc(Nc2nc(N)nc(CSc3nccn3C)n2)cc1 ? Thanks!
4.64

Could you please provide reported hERG current change (%, negative = inhibition) at 10uM for COc1ccc(Nc2nc(N)nc(CN3CCN(c4ccccn4)CC3)n2)cc1 ? Thanks!
-65.1

Could you please provide reported hERG current change (%, negative = inhibition) at 10uM for COc1ccc(CCNCc2ccsc2)cc1OC ? Thanks!
1.86

Could you please provide reported hERG current change (%, negative = inhibition) at 10uM for CC(=O)c1ccc(N2C(=NC(=O)COc3ccccc3)SC3CS(=O)(=O)CC32)cc1 (centres unmarked) ? Thanks!
-3.89

====

target: human ether-à-go-go-related gene (hERG) potassium channel (human, UniProt Q12809); assay: primary screen, population patch clamp on CHO cells stably expressing hERG; higher = less effect of the substance;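 also: peak tail current of the secondary pulse compared with the same well before compound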
Out of some 310,000 compounds screened, about 14,000 (4.5%) showed an effect of 50% or more. The effect is printed as a negative number. The full list was thinned out, with strong results kept by preference.
Reported hERG current change (%, negative = inhibition) at 10uM values for the following compounds.
Your answer should be a plain number; it is taken to be in %.

Worked examples, 5 compounds total:
CCN(CC)c1ccc(/C=C2/C(=O)ON=C2C)cc1	-20.9
CCc1nn(C(C)C(=O)N2CC(C)CC(C)C2)c(=O)c2cc3occc3n12 (stereo not drawn)	-7.58
O=C(NCc1cccs1)c1cc2c(s1)CS(=O)(=O)C2	-0.732
CCOc1ccccc1-c1noc(CCC(=O)Nc2cccnc2)n1	9.94
Cc1cc(=O)[nH]c(SCC(=O)Nc2ccc3c(c2)CCC3)c1C#N	-6.4

Now for the compound whose hERG current change (%, negative = inhibition) at 10uM we want.
Could you please provide reported hERG current change (%, negative = inhibition) at 10uM for CS(=O)(=O)Cc1ccc(C(=O)N2CCCC2c2cccs2)cc1 (stereo not drawn) ? Thanks!
16.9

====

target: human ether-à-go-go-related gene (hERG) potassium channel (human, UniProt Q12809); assay: primary screen, population patch clamp on CHO cells stably expressing hERG; higher = less effect of the substance;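 also: peak tail current of the secondary pulse compared with the same well before compound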
Among all 310,000 compounds or so, about 14,000 (4.5%) showed an effect of 50% or more. Effects have a minus sign here. Only a selection was taken, and strong results are over-represented in it overall.
Reported hERG current change (%, negative = inhibition) at 10uM values for the following compounds.
Your answer should be a plain number; it is taken to be in %.

Cc1csc(NC(=O)c2cccnc2)n1	13.5
Cc1nnsc1C(=O)NNc1ccc(C(C)(C)C)cc1	14.1
COC(=O)/C=C1\C(=O)N(c2nc3ccc(OC)cc3s2)C(=S)N1c1ccc(F)cc1	-7.23
Cc1ccc2c(c1)/C(=C/c1ccc(F)cc1)C(=O)N2	10.5

Could you please provide reported hERG current change (%, negative = inhibition) at 10uM for Cc1ccccc1C(=O)O/N=C1\CCS(=O)(=O)c2sccc21 ? Thanks!
8.17

Could you please provide reported hERG current change (%, negative = inhibition) at 10uM for COCC(C)N=C1NN=C(c2cc(C)n(Cc3ccccc3Cl)c2C)CS1 (stereo not shown) ? Thanks!
-9.9

====

Reported hERG current change (%, negative = inhibition) at 10uM values for the following compounds.
target: human ether-à-go-go-related gene (hERG) potassium channel (human); assay: primary screen, population patch clamp on CHO cells stably expressing hERG; higher = less effect of the substance;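 also: peak tail current of the secondary pulse compared with the same well before compound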
The whole screen tested about 310,000 compounds, of which about 14,000 (4.5%) showed an effect of 50% or more. The effect is printed as a negative number. Many of the other results were omitted from the sample, so strong results are more common in it than they were.
Your answer should be a plain number; it is taken to be in %.

CC1CCN(C(=O)c2cccc(S(=O)(=O)N3CCN(c4ccccc4)CC3)c2)CC1	2.41
C=C1c2ccccc2NC(=S)N1Cc1ccc2c(c1)OCO2	27.5
OCCNc1nc(N2CCCC2)nc(N2CCCC2)n1	-2.85
COc1cc(OC)cc(C(=O)Nc2c(C)nn(-c3ccccc3)c2C)c1	-3.27
Cl.N=C(N)SCc1ccc(O)c([N+](=O)[O-])c1	-0.169
CC(C)C(C(=O)Nc1sc2c(c1C#N)CCCCC2)N1C(=O)c2ccccc2C1=O (stereo not drawn)	4.7
Cl.c1ccc2c(NCC3CCCO3)nc(N3CCCCC3)nc2c1 (stereo not drawn)	-72.9
C=CCNc1nc(N2CCCC2)nc2ccccc12	-78.3

Now for the compound whose hERG current change (%, negative = inhibition) at 10uM we want.
Write down measured hERG current change (%, negative = inhibition) at 10uM (human ether-à-go-go-related gene (hERG) potassium channel (human)) for this compound. CCCOc1ccc(CSC(=N)N)cc1C(=O)OC.Cl
-0.181
